This collection of values is drawn from PubChem BioAssay (NCI).

test system: MDA-MB-231 breast; assay: NCI tumour cell line growth inhibition, 48 h
Where a SMILES comes first, the peptide text is derived from it. Bridges are numbered along the chain shown (N, C = ends). [ ]: non-standard residue; d: D form. The star is where a group is joined. Cbz = O=C(OCc1ccccc1)*; Aib = CC(C)(N)C(=O)O; OBn = c1ccc(CO*)cc1; βAla = NCCC(=O)O
observable: TGI

{"molecule": "CC(=O)OCC1OC(N2C(c3ccccc3)=CC(c3ccccc3)C(C#N)=C2S)C(OC(C)=O)C(OC(C)=O)C1OC(C)=O (stereo not given)", "target-desc": "MDA-MB-231 breast", "TGI": "> 40.8 µM"}
{"molecule": "COc1cc(-c2c(C#N)c(N)n3c(nc4ccccc43)c2C#N)cc(Br)c1OC", "target-desc": "MDA-MB-231 breast", "TGI": "> 100 µM"}

Look up TGI for the entries below, preserving their order.
1. CC1(C)NC(=O)C(NC(=O)C(CC(=O)OCc2ccccc2)NC(=O)OCc2ccccc2)CCCCNC(=O)CCNC1=O (stereo not given) (Cbz-D(OBn)K[Aib][βAla]; lactam 2-C; configuration not given here)
2. COc1cc([C@@H]2c3cc4c(cc3C(O[C@@H]3O[C@@H]5CO[C@@H](c6cccs6)OC5[C@H](O)[C@H]3O)C3COC(=O)[C@@H]32)OCO4)cc(OC)c1O (stereo not given in full)
3. COc1cccc(NCc2nnc(Nc3ccc(Cl)cc3)c3ccccc23)c1
4. COc1ccc(-n2cc(-c3cc(OC)c(OC)c(OC)c3)[nH]c2=S)cc1OC

["> 100 µM", "3.58 µM", "6.32 µM", "> 100 µM"]

Look up TGI for the entries below, preserving their order.
1. COC1(OC)C2(Cl)CCC1(Cl)C(OC(C)=O)C2 (stereo not given)
2. CCCCNC(=O)NS(=O)(=O)c1ccc(N2N=C(c3ccc(C)cc3C)CC2c2ccc(N(C)C)cc2)cc1 (stereo not given)
3. CN(C)CC(CN(C)C)c1ccccn1
4. COc1cc(C(=O)O[C@H](C(N)=O)[C@]2(C)CO2)c2ccccc2c1
5. C=CCN1C(=O)/C(=C/c2ccccc2)NC1=S
6. CCSc1nc(N2CCOCC2)c2cn[nH]c2n1
7. O=P(c1ccccc1)(c1ccccc1)C(NCc1ccccc1)c1ccc(F)cc1 (stereo not given)
8. CNC(=O)N1CCN(C(=O)NC)CCN(C(=O)NC)CC1

["> 100 µM", "35.6 µM", "> 100 µM", "27.7 µM", "> 100 µM", "> 100 µM", "26.1 µM", "> 100 µM"]

* * *

test system: HOP-62 NSCLC; test: NCI tumour cell line growth inhibition, 48 h
Please respond with reported TGI for every item in the list.

{"compound": "O=[N+]([O-])c1ccc2nnnn2c1", "recorded-result": "> 100 µM"}

Look up TGI for the entries below, preserving their order.
1. Cc1ccc(S(=O)(=O)OC2C3OC(C)(C)OC3OC2C(c2cc(O)c3c(c2O)C(=O)c2ccccc2C3=O)c2cc(O)c3c(c2O)C(=O)c2ccccc2C3=O)cc1 (stereo unspecified)
2. N#CCCN(CCC#N)c1ccc(/C=C2\N=C(CN3C(=O)c4ccccc4C3=O)OC2=O)cc1
3. Cc1cccc(C(C)(C)C)c1NC(=O)CCc1n[nH]c(=S)o1

1: > 10 µM; 2: > 100 µM; 3: > 100 µM
